Record form. Attribute: Fold change in binding relative to BKO-4A8. Fill in for each entry.
assay target: T1, human CXCR2 (human, UniProt P25025 1-360)
T1 construct: also called CXC chemokine receptor 2; hCXCR2
T1 sequence: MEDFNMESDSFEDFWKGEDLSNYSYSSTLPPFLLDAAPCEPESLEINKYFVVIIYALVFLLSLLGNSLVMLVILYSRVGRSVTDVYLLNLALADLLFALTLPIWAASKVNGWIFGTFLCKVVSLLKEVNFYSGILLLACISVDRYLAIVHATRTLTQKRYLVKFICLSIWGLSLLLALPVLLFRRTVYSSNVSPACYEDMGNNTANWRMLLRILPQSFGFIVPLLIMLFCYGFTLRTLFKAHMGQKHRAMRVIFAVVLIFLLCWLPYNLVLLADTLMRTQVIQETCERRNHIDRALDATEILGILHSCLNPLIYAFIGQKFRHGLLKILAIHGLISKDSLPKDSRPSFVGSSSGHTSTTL
assay comment: flow cytometry, CXCR2-transfected Expi293F cells
Answer by giving the amount and then stating its unit.

According to the records, this binder BKO-4A8 variant VL N94L (antibody, human IgG4 S228P, lambda, V domains shown, IgG4 S228P, lambda; parental heavy chain; also called 4A8 VL N94L) VH: EVQLLESGGGLVQPGGSLRLSCAASGFTFSSSTMSWVRQAPGKGLEWVSAISGRGRNTYYADSVKGRFTISRDNSRNTLYLQMNSLRAEDTAVYYCAIQMGYWGQGILVTVSS VL: QSALTQPPSASGSPGQSVTISCIGTSSDVGGYNYVSWYQQHPDKAPKLMIYEVNKRPSGVPDRFSGSKSGNTASLTVSGLQAEDEADYYCSSYAGLNNFGVFGGGTKLTVLG displays Fold change in binding relative to BKO-4A8 of 0.88 fold

According to the records, this binder BKO-4A8 variant VL N94Y (antibody, human IgG4 S228P, lambda, V domains shown, IgG4 S228P, lambda; parental heavy chain; also called 4A8 VL N94Y) VH: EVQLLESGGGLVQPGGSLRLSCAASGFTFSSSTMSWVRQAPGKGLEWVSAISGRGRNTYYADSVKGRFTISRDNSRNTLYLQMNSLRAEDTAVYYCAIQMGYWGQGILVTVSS VL: QSALTQPPSASGSPGQSVTISCIGTSSDVGGYNYVSWYQQHPDKAPKLMIYEVNKRPSGVPDRFSGSKSGNTASLTVSGLQAEDEADYYCSSYAGYNNFGVFGGGTKLTVLG displays Fold change in binding relative to BKO-4A8 of 0.5 fold

According to the records, this binder BKO-4A8 variant VH G54D (antibody, human IgG4 S228P, lambda, V domains shown, IgG4 S228P, lambda; parental light chain; also called 4A8 VH G54D) VH: EVQLLESGGGLVQPGGSLRLSCAASGFTFSSSTMSWVRQAPGKGLEWVSAISGRDRNTYYADSVKGRFTISRDNSRNTLYLQMNSLRAEDTAVYYCAIQMGYWGQGILVTVSS VL: QSALTQPPSASGSPGQSVTISCIGTSSDVGGYNYVSWYQQHPDKAPKLMIYEVNKRPSGVPDRFSGSKSGNTASLTVSGLQAEDEADYYCSSYAGNNNFGVFGGGTKLTVLG displays Fold change in binding relative to BKO-4A8 of 1 fold

According to the records, this binder BKO-4A8 variant VH M34D (antibody, human IgG4 S228P, lambda, V domains shown, IgG4 S228P, lambda; parental light chain; also called 4A8 VH M34D) VH: EVQLLESGGGLVQPGGSLRLSCAASGFTFSSSTDSWVRQAPGKGLEWVSAISGRGRNTYYADSVKGRFTISRDNSRNTLYLQMNSLRAEDTAVYYCAIQMGYWGQGILVTVSS VL: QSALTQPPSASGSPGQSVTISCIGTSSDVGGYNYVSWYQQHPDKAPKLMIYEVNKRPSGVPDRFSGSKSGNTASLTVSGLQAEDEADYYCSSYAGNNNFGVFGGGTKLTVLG displays Fold change in binding relative to BKO-4A8 of 1.6 fold

According to the records, this binder BKO-4A8 variant VH I94K (antibody, human IgG4 S228P, lambda, V domains shown, IgG4 S228P, lambda; parental light chain; also called 4A8 VH I94K) VH: EVQLLESGGGLVQPGGSLRLSCAASGFTFSSSTMSWVRQAPGKGLEWVSAISGRGRNTYYADSVKGRFTISRDNSRNTLYLQMNSLRAEDTAVYYCAKQMGYWGQGILVTVSS VL: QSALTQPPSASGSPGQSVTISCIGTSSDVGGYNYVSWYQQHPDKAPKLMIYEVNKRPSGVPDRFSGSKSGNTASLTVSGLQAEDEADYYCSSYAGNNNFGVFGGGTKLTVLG displays Fold change in binding relative to BKO-4A8 of 0.7 fold

According to the records, this binder BKO-4A8 variant VL N52S (antibody, human IgG4 S228P, lambda, V domains shown, IgG4 S228P, lambda; parental heavy chain; also called 4A8 VL N52S) VH: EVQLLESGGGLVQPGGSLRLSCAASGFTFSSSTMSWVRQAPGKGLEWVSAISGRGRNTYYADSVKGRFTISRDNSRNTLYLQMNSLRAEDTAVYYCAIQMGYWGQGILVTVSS VL: QSALTQPPSASGSPGQSVTISCIGTSSDVGGYNYVSWYQQHPDKAPKLMIYEVSKRPSGVPDRFSGSKSGNTASLTVSGLQAEDEADYYCSSYAGNNNFGVFGGGTKLTVLG displays Fold change in binding relative to BKO-4A8 of 1 fold

According to the records, this binder BKO-4A8 variant VH S32Y (antibody, human IgG4 S228P, lambda, V domains shown, IgG4 S228P, lambda; parental light chain; also called 4A8 VH S32Y) VH: EVQLLESGGGLVQPGGSLRLSCAASGFTFSSYTMSWVRQAPGKGLEWVSAISGRGRNTYYADSVKGRFTISRDNSRNTLYLQMNSLRAEDTAVYYCAIQMGYWGQGILVTVSS VL: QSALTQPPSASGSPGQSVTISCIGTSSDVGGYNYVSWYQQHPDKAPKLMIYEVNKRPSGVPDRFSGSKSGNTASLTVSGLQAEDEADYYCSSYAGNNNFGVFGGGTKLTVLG displays Fold change in binding relative to BKO-4A8 of 1.33 fold

According to the records, this binder BKO-4A8 variant VL K53D (antibody, human IgG4 S228P, lambda, V domains shown, IgG4 S228P, lambda; parental heavy chain; also called 4A8 VL K53D) VH: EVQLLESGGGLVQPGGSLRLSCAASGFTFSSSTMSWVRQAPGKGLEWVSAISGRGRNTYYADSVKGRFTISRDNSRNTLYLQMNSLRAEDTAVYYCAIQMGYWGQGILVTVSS VL: QSALTQPPSASGSPGQSVTISCIGTSSDVGGYNYVSWYQQHPDKAPKLMIYEVNDRPSGVPDRFSGSKSGNTASLTVSGLQAEDEADYYCSSYAGNNNFGVFGGGTKLTVLG displays Fold change in binding relative to BKO-4A8 of 1.4 fold

According to the records, this binder BKO-4A8 variant VL Y91A (antibody, human IgG4 S228P, lambda, V domains shown, IgG4 S228P, lambda; parental heavy chain; also called 4A8 VL Y91A) VH: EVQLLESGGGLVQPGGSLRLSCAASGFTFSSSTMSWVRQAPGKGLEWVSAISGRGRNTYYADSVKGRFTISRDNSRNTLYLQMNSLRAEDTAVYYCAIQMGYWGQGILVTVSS VL: QSALTQPPSASGSPGQSVTISCIGTSSDVGGYNYVSWYQQHPDKAPKLMIYEVNKRPSGVPDRFSGSKSGNTASLTVSGLQAEDEADYYCSSAAGNNNFGVFGGGTKLTVLG displays Fold change in binding relative to BKO-4A8 of 1.7 fold

According to the records, this binder BKO-4A8 variant VH S32Q (antibody, human IgG4 S228P, lambda, V domains shown, IgG4 S228P, lambda; parental light chain; also called 4A8 VH S32Q) VH: EVQLLESGGGLVQPGGSLRLSCAASGFTFSSQTMSWVRQAPGKGLEWVSAISGRGRNTYYADSVKGRFTISRDNSRNTLYLQMNSLRAEDTAVYYCAIQMGYWGQGILVTVSS VL: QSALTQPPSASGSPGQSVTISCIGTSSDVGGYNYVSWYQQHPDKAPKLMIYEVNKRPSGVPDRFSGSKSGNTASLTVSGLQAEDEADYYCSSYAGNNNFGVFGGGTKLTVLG displays Fold change in binding relative to BKO-4A8 of 1.71 fold
